Reference source: patent US20230355557A1

# experimental-system: SOX18 (Mus musculus)
# Construct: expressed in transfected cells; host or cells: COS-7 (monkey kidney fibroblast-like cells)
# Sequence (P43680 1-377): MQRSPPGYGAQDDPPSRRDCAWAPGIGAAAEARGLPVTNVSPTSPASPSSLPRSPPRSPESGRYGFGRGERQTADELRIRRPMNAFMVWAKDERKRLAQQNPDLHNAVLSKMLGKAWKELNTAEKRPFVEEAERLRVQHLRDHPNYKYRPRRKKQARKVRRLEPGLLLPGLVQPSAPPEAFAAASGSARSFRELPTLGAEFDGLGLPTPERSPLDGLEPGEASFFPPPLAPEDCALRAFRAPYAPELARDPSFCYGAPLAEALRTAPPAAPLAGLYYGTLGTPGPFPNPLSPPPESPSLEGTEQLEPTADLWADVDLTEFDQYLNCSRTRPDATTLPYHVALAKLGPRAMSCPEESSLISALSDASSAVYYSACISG
# assay: VCAM-1 luciferase reporter assay in COS-7 cells transfected with Vcam-1 promoter construct and SOX18
# Format: cell-based
# experimental-parameters: VCAM-1 promoter luciferase, 24 hr compound incubation, % of maximal signal without compound
# Procedure: Monkey kidney fibroblast-like cells (COS-7) were cultured at 37° C. and 5% CO2 in DMEM (Life Technologies, 11995) with fetal bovine serum (FBS), sodium pyruvate, L-glutamine, penicillin, streptomycin, non-essential amino acids, and HEPES. […] The second assay measured the interaction between SOX18 and the VCAM-1 promoter (Hosking et al., (2004) J Biol. Chem. 297:5314-5322). […]
Tag: Fulfilled if measured %inhibition of Sox18 is not below 50%, Not fulfilled if it is.

**Query** hey, is %inhibition of Sox18 for this one >= 50%? `O=C(O)c1c(O)cc(Cl)cc1CCc1ccc2ccccc2c1`
**Result** Fulfilled

**Query** Reported %inhibition of Sox18 reaches at least 50% for `Cc1cc(O)c(C(=O)O)c(CCc2ccc3ccccc3c2)c1` ?
**Result** Fulfilled

**Query** Determine whether this compound has %inhibition of Sox18 no lower than 50%: `COC(=O)c1c(O)cccc1CCc1ccc(Cl)cc1`
**Result** Not fulfilled

**Query** Tell me whether %inhibition of Sox18 is at least 50% here: `COc1cccc(/C=C/c2ccc3ccccc3c2)c1C(=O)O`
**Result** Not fulfilled

**Query** Test whether the compound `COc1cccc(CCc2cccc3ccccc23)c1C(=O)O` records %inhibition of Sox18 of 50% or higher.
**Result** Not fulfilled

**Query** Assess whether reported %inhibition of Sox18 for `COc1cc(O)c(C(=O)O)c(CCc2ccc3ccccc3c2)c1` sits at 50% or higher.
**Result** Fulfilled

**Query** Record `COc1ccc(CCc2cccc(OC)c2C(=O)O)cc1` ; criterion: %inhibition of Sox18 no lower than 50%. Met?
**Result** Not fulfilled

**Query** Decide: is the reported value of %inhibition of Sox18 for `O=C(O)c1c(O)cccc1CCc1ccc(Cl)cc1Cl` equal to or greater than 50%?
**Result** Not fulfilled

**Query** Hi team, for `O=C(O)c1c(O)cccc1CCc1ccc2ccccc2c1` , is the recorded %inhibition of Sox18 at or above 50%?
**Result** Fulfilled

**Query** State whether the measured %inhibition of Sox18 reaches 50%, counting equality as reaching it, for `COc1cccc(COCc2ccc3ccccc3c2)c1C(=O)O`
**Result** Not fulfilled
